Test: In vivo pharmacokinetics in rats
Set-up: species or system Sprague-Dawley rats
Details: rat, plasma; male Sprague-Dawley rats, 10 mg/kg PO, 0.5 hr; read-out: Mean (ng/mL) after 10 mg/kg PO dose
result_type: concentration at 0.5 h (ng/mL)
Give your result in ng/mL as a bare value.

[ask] Indicate its recorded concentration at 0.5 h; the compound in question is C[C@@H](NC(=O)Cc1ccc(C(F)(F)F)cc1)c1cc2cnn(CC(F)(F)F)c2cn1
[reply] 4510

---

Assay: In vivo pharmacokinetics in rats
Set-up: species or system Sprague-Dawley rats
Settings: rat, plasma; male Sprague-Dawley rats, 1 mg/kg IV, 0.5 hr; read-out: Mean (ng/mL) after 1 mg/kg IV dose
result_type: concentration at 0.5 h (ng/mL)
Give your result in ng/mL as a bare value.

[ask] Indicate its recorded concentration at 0.5 h; the compound in question is C[C@@H](NC(=O)Cc1ccc(C(F)(F)F)cc1)c1cc2cnn(CC(F)(F)F)c2cn1
[reply] 764

---

Biological target: Cav3.2 (Homo sapiens (Human), UniProt O95180)
Sequence (O95180 whole entry): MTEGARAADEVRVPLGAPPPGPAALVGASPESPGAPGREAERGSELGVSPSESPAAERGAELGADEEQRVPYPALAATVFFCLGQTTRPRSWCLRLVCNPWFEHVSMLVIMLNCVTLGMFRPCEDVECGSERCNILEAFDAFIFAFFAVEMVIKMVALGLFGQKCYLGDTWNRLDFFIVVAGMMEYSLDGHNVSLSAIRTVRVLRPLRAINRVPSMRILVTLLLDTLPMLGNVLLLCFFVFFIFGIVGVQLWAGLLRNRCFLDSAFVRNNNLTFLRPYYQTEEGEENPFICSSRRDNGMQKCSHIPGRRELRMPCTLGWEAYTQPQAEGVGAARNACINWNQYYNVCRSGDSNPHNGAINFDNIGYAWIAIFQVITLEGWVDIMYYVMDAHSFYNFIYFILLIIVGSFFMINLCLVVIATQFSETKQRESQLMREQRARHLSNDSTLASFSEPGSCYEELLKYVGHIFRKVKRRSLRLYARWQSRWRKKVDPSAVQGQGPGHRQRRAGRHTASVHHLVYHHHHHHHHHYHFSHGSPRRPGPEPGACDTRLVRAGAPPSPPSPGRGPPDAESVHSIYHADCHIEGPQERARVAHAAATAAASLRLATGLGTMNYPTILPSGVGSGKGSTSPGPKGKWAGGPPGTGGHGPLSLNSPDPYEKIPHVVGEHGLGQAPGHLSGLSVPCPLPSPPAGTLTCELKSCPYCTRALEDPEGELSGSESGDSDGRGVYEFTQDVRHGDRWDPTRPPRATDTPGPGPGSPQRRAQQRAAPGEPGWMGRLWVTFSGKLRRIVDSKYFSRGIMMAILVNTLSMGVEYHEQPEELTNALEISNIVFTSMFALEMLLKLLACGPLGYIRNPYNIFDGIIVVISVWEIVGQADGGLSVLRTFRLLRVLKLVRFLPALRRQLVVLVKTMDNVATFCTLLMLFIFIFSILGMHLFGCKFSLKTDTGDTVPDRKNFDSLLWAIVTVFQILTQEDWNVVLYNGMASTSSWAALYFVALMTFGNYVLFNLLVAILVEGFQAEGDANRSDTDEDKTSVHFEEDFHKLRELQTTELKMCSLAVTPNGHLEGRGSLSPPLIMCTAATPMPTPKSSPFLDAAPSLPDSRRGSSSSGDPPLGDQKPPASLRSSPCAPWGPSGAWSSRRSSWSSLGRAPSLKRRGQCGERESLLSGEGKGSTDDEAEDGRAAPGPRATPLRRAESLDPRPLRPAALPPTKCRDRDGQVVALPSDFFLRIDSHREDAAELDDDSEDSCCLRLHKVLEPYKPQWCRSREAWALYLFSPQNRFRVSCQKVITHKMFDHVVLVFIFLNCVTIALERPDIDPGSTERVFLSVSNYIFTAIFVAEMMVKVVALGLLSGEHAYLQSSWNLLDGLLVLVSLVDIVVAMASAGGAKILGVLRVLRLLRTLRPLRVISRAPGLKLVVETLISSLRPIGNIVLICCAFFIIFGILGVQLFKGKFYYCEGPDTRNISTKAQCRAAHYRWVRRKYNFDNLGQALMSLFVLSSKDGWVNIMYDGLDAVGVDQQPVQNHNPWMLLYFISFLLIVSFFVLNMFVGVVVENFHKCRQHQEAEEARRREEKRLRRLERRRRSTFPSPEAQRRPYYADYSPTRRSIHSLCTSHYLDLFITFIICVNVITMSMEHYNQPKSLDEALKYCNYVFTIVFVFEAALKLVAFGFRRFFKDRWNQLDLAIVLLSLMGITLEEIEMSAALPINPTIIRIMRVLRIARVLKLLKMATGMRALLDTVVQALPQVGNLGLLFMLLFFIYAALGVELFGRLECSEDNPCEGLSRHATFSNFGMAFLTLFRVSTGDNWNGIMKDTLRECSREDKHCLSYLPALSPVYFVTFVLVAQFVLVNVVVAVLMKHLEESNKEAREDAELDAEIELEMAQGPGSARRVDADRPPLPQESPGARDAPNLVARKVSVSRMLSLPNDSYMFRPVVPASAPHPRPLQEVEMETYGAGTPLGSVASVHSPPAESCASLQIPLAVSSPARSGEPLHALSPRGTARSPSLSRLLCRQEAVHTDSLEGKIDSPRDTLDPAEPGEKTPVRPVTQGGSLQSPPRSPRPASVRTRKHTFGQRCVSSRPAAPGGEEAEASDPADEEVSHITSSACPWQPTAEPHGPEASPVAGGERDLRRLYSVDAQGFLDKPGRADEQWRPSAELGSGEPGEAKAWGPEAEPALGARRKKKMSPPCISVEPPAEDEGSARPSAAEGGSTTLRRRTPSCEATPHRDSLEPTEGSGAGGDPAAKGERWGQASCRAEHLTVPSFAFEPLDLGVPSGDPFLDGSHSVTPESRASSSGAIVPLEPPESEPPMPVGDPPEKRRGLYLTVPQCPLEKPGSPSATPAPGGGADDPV
Test: In vitro patch clamp assay (SyncroPatch 384PE)
Type: cell-based
Conditions: HEK293 cells
pIC50: −log10 of the molar value.
Use 6 as the dividing line for pIC50, with the line itself on the Met side and lower values as Not met.

[ask] Hi, just wondering whether C[C@@H](NC(=O)Cc1ccc(C(F)(F)F)cc1)c1cc2ccn(CC(F)(F)F)c2cn1 shows pIC50 of 6 or higher.
[reply] Met

[ask] Hi, just wondering whether C[C@@H](NC(=O)Cc1ccc(C2(C(F)F)CC2)cc1)c1cc2cnn(CC(F)(F)F)c2cn1 shows pIC50 of 6 or higher.
[reply] Met

[ask] Hi, just wondering whether CC(C)c1ccc(CC(=O)N[C@H](C)c2cc3c(cn2)cnn3C)cc1 shows pIC50 of 6 or higher.
[reply] Not met

[ask] Hi, just wondering whether C[C@@H](NC(=O)Cc1ccc(C2(C(F)(F)F)CC2)nc1)c1cc2cnn(CC(F)(F)F)c2cn1 shows pIC50 of 6 or higher.
[reply] Not met

[ask] Hi, just wondering whether C[C@@H](NC(=O)Cc1ccc(C2(C(F)(F)F)CC2)nc1)c1ncc(Cl)s1 shows pIC50 of 6 or higher.
[reply] Not met

---

Assay: In vivo pharmacokinetics in rats
Design: species or system Sprague-Dawley rats
Details: rat, plasma; male Sprague-Dawley rats, 10 mg/kg PO, 0.25 hr; read-out: Mean (ng/mL) after 10 mg/kg PO dose
result_type: concentration at 0.25 h
Field note: include the unit after the figure.

[ask] Indicate its recorded concentration at 0.25 h; the compound in question is C[C@@H](NC(=O)Cc1ccc(C(F)(F)F)cc1)c1cc2cnn(CC(F)(F)F)c2cn1 [Example 15]
[reply] 4110 ng/mL

---

Molecular target: UniProt:O95180
Assay: In vitro patch clamp assay (SyncroPatch 384PE)
Conditions: HEK293 cells
Field: pIC50. Provide a value for each of the molecules that follow.
Please note pIC50 is a logarithmic value: minus log10 of concentration in mol/L. Answer with that number alone.

[ask] Indicate its recorded pIC50; the molecule in question is CC(C)c1ccc(CC(=O)N[C@H](C)c2cc3cnn(CC4(F)CC4)c3cn2)cc1
[reply] 6.46

[ask] Indicate its recorded pIC50; the molecule in question is C[C@@H](NC(=O)Cc1ccc(C(C)(F)F)c(C#N)c1)c1cc2cnn(CC(F)(F)F)c2cn1
[reply] 6.41

[ask] Indicate its recorded pIC50; the molecule in question is Cc1nc2cc(CC(=O)N[C@H](C)c3cc4cnn(CC(F)(F)F)c4cn3)ccc2n1C
[reply] 6.04
